protocol.details: qHTS for induction of synthetic lethality in tumor cells producing 2HG: qHTS for the HT-1080-NT fibrosarcoma cell line;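 note: NT is the 2HG producing partner of a matched IDH1 knockdown line; nearly all actives have a fitted effect of over 55% in size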
cond: HT-1080-NT fibrosarcoma viability, CellTiter-Glo ATP luminescence, 48 h; series mostly up to 46.1 µM
Screen size: about 360,000 compounds; about 6,000 (1.7%) were called active. Not shown: some 8% with an inconclusive outcome. Calls come from the whole dose curve; as a rule, active = well fitted cell-killing curve with a large enough effect; inconclusive = small, poorly fitted or top-dose-only effect, or effect the other way; inactive = flat fitted curve, though single readings scatter. This excerpt belongs to a sample that is enriched for actives.
Assign a class; possible classes are active, inactive

Check out these entries, answers already filled in.
molecule=Cc1ccc(-c2nn(-c3ccccc3)cc2C(=O)NCCCN2CCCC2=O)cc1 category_label=inactive
molecule=COC(=O)C[C@@H]1C=C[C@@H](NC(=O)c2ccc3c(c2)OCO3)[C@@H](CO)O1 category_label=inactive
molecule="COc1ccc(C2CC(c3ccccc3)=NN2C(=O)COC(=O)COc2ccccc2)cc1 (stereo not given)" category_label=inactive
molecule=O=C1COc2ccc(S(=O)(=O)Nc3ccc(OC(F)(F)F)cc3)cc2N1 category_label=inactive
molecule=O=C(NCCS(=O)(=O)N1CCN(c2ccccc2)CC1)c1cc(=O)c2ccccc2o1 category_label=inactive

Field: outcome | Entry: CN1OC[C@@H]2CN[C@H](c3ccc(-c4ccccc4)cc3)C[C@@H]21
inactive

Try this molecule too: Cc1nn(C)c(C)c1NS(=O)(=O)c1ccc(OC(F)(F)F)cc1
inactive

Please do the same for O=C(NCCc1ccc(Cl)cc1)c1cccc(N2CCCC2=O)c1 as well.
inactive

Same for COc1ccc(C(=O)OCC(=O)Nc2cc(C)on2)cc1F
inactive

Next molecule up: CCc1nc2ccc(C(=O)N3CCC(O)(Cc4ccccc4)CC3)cn2c1N(C)C(=O)Cc1ccccc1
inactive

Next molecule up: Cc1cccc(C)c1-n1nnnc1C(CCc1ccccc1)N1CCN(C/C=C/c2ccccc2)CC1 (stereo not given)
inactive

Same question, CSc1ncnc2c1ncn2CCCNCC(C)c1ccccc1 (stereo not given) this time
inactive

Quick one: COc1ccc(C2CC(c3cccc(OC)c3)=NN2c2ccc(S(N)(=O)=O)cc2)cc1 (stereo not given)
active

For COc1ccc(CN2C(=O)C(CC(=O)NC3CCCCC3)CC(C(=O)N3CCOCC3)=C2C)cc1 (stereo not given) then?
inactive

Next record, please: O=C(O)c1ccc(NC(=O)c2cn(-c3ccccc3)nc2-c2ccc(Cl)cc2)cc1
active

// repeat for COC(=O)[C@]12CCCCC=C1N(CCC1=CCCCC1)C(=O)[C@H](CC(=O)N1CCSCC1)C2 and report
inactive

How about this molecule: NS(=O)(=O)c1ccc(CNC(=O)c2cc(S(=O)(=O)N3CCOCC3)ccc2N2CCCC2)cc1
inactive

And C[C@H]1COc2cc(N3CCSCC3)ccc2S(=O)(=O)N1 ?
inactive

Further, for O=C1NC[C@@H](CCCCN2CCN(CCc3ccc(O)cc3)C(=O)C2=O)N(CC2CCCCC2)C1=O ?
inactive

What do you have for Cc1ccc(S(=O)(=O)N2[C@@H](Cc3ccccc3)CO[C@H]2CC(=O)OCc2ccccc2)cc1 ?
inactive

Do the same for COc1ccc(C(O)C(O)(C(=O)OC(C)C)c2ccc(C)cc2)cc1 (stereo not given) please
inactive

And for CCOC1=C2CN(S(=O)(=O)c3ccc(C)cc3)[C@H](c3cccs3)C[C@H]2[C@H]2C(=O)N(c3ccccc3)C(=O)[C@H]2C1 ?
inactive

Next up: Cc1c(C(=O)NCC2CC2)sc(=O)n1Cc1cccc(F)c1
inactive
